test system: Ucp1; experiment: UCP1 luciferase assay (Ucp1 up-regulation in differentiated inguinal adipocytes of Ucp1-luciferase knock-in mice); assay type: cell-based; details: Mus musculus, Adipocyte, 48 h; at 3 μM; 2 days treatment; luciferase activity; read-out: Ucp1 activation fold/corresponding concentration
Please mark rule met if the recorded fold induction at 3 µM is equal to or greater than 2, and rule not met if it falls below.

See these solved cases before continuing.
q: Is reported fold induction at 3 µM greater than or equal to 2 here: O=C(Nc1ccc(Cl)cc1)c1csc(Nc2ccccn2)n1
a: rule not met

q: # bool: fold induction at 3 µM of CC(=O)c1ccc(-c2csc(Nc3ccccn3)n2)cc1 >= 2
a: rule not met

q: Check the entry O=C(Nc1ccccn1)c1ccc(-c2csc(Nc3ccccn3)n2)cc1 : does fold induction at 3 µM equal or exceed 2?
a: rule met

q: Is fold induction at 3 µM for COc1ccc(-c2csc(Nc3cc(Cl)ccn3)n2)cc1OC at or above 2?
a: rule not met

Further cases:
q: Quick check, fold induction at 3 µM >= 2? c1ccc(Nc2nc(-c3ccc(-c4nn[nH]n4)cc3)cs2)nc1
a: rule not met

q: Reported fold induction at 3 µM at or above 2? Clc1ccc(-c2csc(Nc3ccccn3)n2)cc1
a: rule met

q: Is it the case that COc1cc(OC)cc(-c2csc(Nc3ccccn3)n2)c1 has fold induction at 3 µM reaching or exceeding 2?
a: rule met

The measured values listed here are drawn from patent US10532987B2.
